# experimentalSystem: PAR2 (HT-29 cells) (Homo sapiens)
# Construct: host or cells: HT-29
# protocol: Ca FLIPR TETRA assay, ANTAGONIST mode, activator 8 μM SLIGKV
# Type: cell-based
# conditionSet: HT-29 cells; activator 8 μM SLIGKV; Method A: maximal concentration of antagonist 0.1, 1 or 2 μM
pIC50: −log10 of the molar value.
reportedMetric: pIC50

1. CC(C)(C)c1cc(-c2ccc(F)cc2)nc2cc(C(=O)N3CCN(c4cnc(C(=O)O)cn4)CC3(C)C)oc12
8.82
2. Cc1cccc(C2CCN(C(=O)c3cc4nc(-c5ccc(Cl)cc5)cc(C(C)(C)C)c4o3)C(C)(C)C2)n1 (stereo not shown)
7.72

[a] Cc1ccnc(N2CCN(C(=O)c3cc4nc(-c5ccc(Cl)c(F)c5)cc(C(C)(C)C)c4o3)C(C)(C)C2)c1C(=O)O
[b] CC(C)(C)c1cc(-c2ccc(Cl)cc2)nc2cc(C(=O)N3CCN(c4ccc(-c5nnn[nH]5)cn4)CC3(C)C)oc12
[c] Cc1ncc(N2CCN(C(=O)c3cc4nc(C5CCC(C)(C)CC5)cc(C(C)(C)C)c4o3)C(C)(C)C2)nc1C(=O)O [Example I-525]
[d] CC(C)(C)c1cc(-c2ccc(Cl)c(F)c2)nc2cc(C(=O)N3CCN(c4ncc(F)cc4C(=O)O)CC3(C)C)oc12
[e] Cc1cnc(N2CCN(C(=O)c3cc4nc(-c5ccc(Cl)c(F)c5)cc(C(C)(C)C)c4o3)C(C)(C)C2=O)nc1
Hey, quick one: sort these by pIC50, low to high? Please express your ranking as an ordered list of the labels.
a, d, e, b, c
(a: 7.80, d: 8.00, e: 8.28, b: 8.82, c: 9.15)

---

# experimentalSystem: PAR2 (HT-29 cells) (Homo sapiens, UniProt P55085)
# Construct: host or cells: HT-29
# Sequence (P55085 26-397): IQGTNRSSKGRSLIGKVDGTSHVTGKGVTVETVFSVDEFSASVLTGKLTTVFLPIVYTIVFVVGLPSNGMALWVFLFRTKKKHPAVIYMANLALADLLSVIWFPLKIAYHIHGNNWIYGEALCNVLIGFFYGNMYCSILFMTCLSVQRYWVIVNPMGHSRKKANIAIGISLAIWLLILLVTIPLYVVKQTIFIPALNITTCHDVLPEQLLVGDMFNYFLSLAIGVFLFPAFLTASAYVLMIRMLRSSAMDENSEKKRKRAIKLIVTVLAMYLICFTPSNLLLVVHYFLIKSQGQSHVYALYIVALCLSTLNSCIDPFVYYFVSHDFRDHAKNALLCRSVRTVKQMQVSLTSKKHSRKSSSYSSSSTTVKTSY
# protocol: Ca FLIPR TETRA assay, ANTAGONIST mode, activator 3.1 U/mL trypsin
# Type: cell-based
# conditionSet: HT-29 cells; activator 3.1 U/mL trypsin; Method A: maximal concentration of antagonist 0.1, 1 or 2 μM
reportedMetric: IC50 (nM)

Reference set, count: 3
1. CC1(C)CCC(c2cc(C(C)(C)C)c3oc(C(=O)N4CCN(C(=O)CC[C@H](N)C(=O)O)CC4(C)C)cc3n2)CC1
470
2. Cc1cc(N2CCN(C(=O)c3cc4nc(-c5ccc(Cl)cc5)cc(C(C)(C)C)c4o3)C(C)(C)C2)ncc1C(=O)O
0.6
3. CC(C)(C)c1cc(C2CC3(CCC3)C2)nc2cc(C(=O)N3CCN(C(=O)[C@@H]4COCCN4)CC3(C)C)oc12
590

[A] CC(C)(C)c1cc(-c2ccc(Cl)cc2)nc2cc(C(=O)N3CCN(c4ccc(-c5nnn[nH]5)cn4)CC3(C)C)oc12
[B] CC(C)(C)c1cc(-c2ccc(Cl)c(F)c2)nc2cc(C(=O)N3CCC(N)CC3(C)C)oc12 (stereo not shown)
Of A and B , whose reported IC50 is numerically smaller? API: response body contains the label of the selected item.
A
(A: 2.8 nM, B: 640 nM)

[1] Cc1ccnc(N2CCN(C(=O)c3cc4nc(-c5ccc(Cl)cc5)cc(C(C)(C)C)c4o3)C(C)(C)C2=O)n1
[2] [2H]C([2H])([2H])N1CCN(C(=O)c2cc3nc(C4CCC(F)(F)CC4)cc(C(C)(C)C)c3o2)C(C)(C)C1=O
[3] CC(C)(C)c1cc(-c2ccc(Cl)c(F)c2)nc2cc(C(=O)N3CCC(NC(=O)NS(C)(=O)=O)CC3(C)C)oc12 (stereo not shown)
Sort the molecules on IC50; start with the lowest figure. Response field: labels, in requested order.
3, 1, 2
(3: 1 nM, 1: 1.7 nM, 2: 210 nM)
